targetOfAssay: Mitogen-activated protein kinase 7 (Homo sapiens)
measurementProtocol: ERK5 transactivation activators in reporter cells, primary screen, cell-based, HTS (AID 1508626);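 further: luciferase driven by Gal4-ERK5 fusion binding five Gal4 sites before minimal TATA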
details: HeLa Gal4-ERK5 transactivation, 18 h, at 5 µM, stronger effect = higher value
Activity calls are given as the source filed them.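 How the source made its calls: active means luciferase signal above three times the same-plate solvent-only control wells; inactive means the rest.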
assayMetric: luciferase signal

Some compounds with known luciferase signal results, for comparison:
Prompt: Give the reported luciferase signal for "Nc1nc2ncc(=O)[nH]c2c(=O)[nH]1" (system: Mitogen-activated protein kinase 7 (Homo sapiens)).
Response: 56 AU (inactive)

Prompt: Give the reported luciferase signal for COC(=O)C[C@H]1C(C)(C)C2(O)OC34CC2C(=O)[C@]1(C)C3CC[C@]1(C)C4=CC(=O)O[C@H]1c1ccoc1 (stereo partly specified) (system: Mitogen-activated protein kinase 7 (Homo sapiens)).
Response: 20 AU (inactive)

Prompt: Give the reported luciferase signal for "COc1cc(Cc2cnc(N)nc2N)cc(OC)c1OC" (system: Mitogen-activated protein kinase 7 (Homo sapiens)).
Response: 48 AU (inactive)

Prompt: Give the reported luciferase signal for "CC(=O)[C@H]1CC[C@H]2[C@@H]3CCC4=CC(=O)CC[C@]4(C)[C@H]3CC[C@]12C" (system: Mitogen-activated protein kinase 7 (Homo sapiens)).
Response: 28 AU (inactive)

Prompt: Give the reported luciferase signal for "O=C1NS(=O)(=O)c2ccccc21" (system: Mitogen-activated protein kinase 7 (Homo sapiens)).
Response: 40 AU (inactive)

Next:
Prompt: Give the reported luciferase signal for "CC(C)(C)CC(C)(C)c1ccc(OCCOCC[N+](C)(C)Cc2ccccc2)cc1" (system: Mitogen-activated protein kinase 7 (Homo sapiens)).
Response: 44 AU (inactive)
